conditions: Liquid; Rectilinear diameter
Observable: Critical density (kg/m3)

• C=CCC = 233
• CC(C)CC(C)(C)C = 251

(P) CC(C)C
(Q) O=C=O [carbon dioxide]
QUERY: // max by Critical density over [ P , Q ] Give the chosen item's label as your response.
RESULT: Q
(Q: 473 kg/m3, P: 220 kg/m3)
